Reference for the values: ChEMBL document CHEMBL4311950

Assay: physchem
Conditions: octanol/water, pH 7.4
Description: Octanol-water distribution coefficient, log D of the compound at pH 7.4 by RP-HPLC analysis
Measurement Type: logD

Worked cases, logD given:
O=C(c1nnc(-c2ccc(OC(F)F)cc2)o1)N1CC(Oc2ccc(CN3CC4(COC4)C3)cc2)C1: 2.5
O=C(NC1C2CC3CC1CC(O)(C3)C2)c1cnc(OC2COC2)nc1C1CC1 (centres undefined): 2
COc1ccc(-c2nnc(C(=O)N3CC(Oc4ccc(CNCC5(C)COC5)cc4)C3)o2)cc1: 2
COc1ccc(-c2nnc(C(=O)N3CC(Oc4ccc(CN5CC6(COC6)C5)c(C)c4)C3)o2)cc1: 2.6

P. COc1ccc(-c2nnc(C(=O)N3CC(Oc4ccc(CN5CC6(COC6)C5)cc4C)C3)o2)cc1
Q. O=C(NC1C2CC3CC1CC(O)(C3)C2)c1cnc(NC2COC2)nc1C1CC1 (centres undefined)
R. COc1cc(OC2CN(C(=O)c3nnc(-c4ccccc4)o3)C2)ccc1CN1CCCC12COC2
Problem: Put these in order: smallest logD first, largest last. Form entry: labels listed in requested order.
Solution: Q, P, R

###

Test: physchem
Conditions: pH 2.3
Description: Dissociation constant, pKa of compound at pH 2.3 to 10.8 by pressure assisted capillary electrophoresis-MS analysis
Measurement Type: pKa

Worked cases, pKa given:
COc1cc(CN2CCCC23COC3)ccc1OC1CN(C(=O)c2nnc(-c3ccccc3)o2)C1: 6
COc1ccc(-c2nnc(C(=O)N3CC(Oc4ccc(CN5CC6(COC6)C5)c(C)c4)C3)o2)cc1: 8.2
COc1ccc(CN2CC3(COC3)C2)cc1: 8.25

A. COc1ccc(-c2nnc(C(=O)N3CC(Oc4ccc(CN5CC6CC(C5)O6)cc4)C3)o2)cc1
B. O=C(NC1C2CC3CC1CC(O)(C3)C2)c1cnc(NC2COC2)nc1C1CCC1 (stereo not given)
Problem: Between the entries labelled A and B , which has a larger pKa value on record? Reply briefly: the label of your chosen item.
Solution: A
(A: 7.3, B: 2.4)

P. O=C(c1nnc(-c2ccccc2)o1)N1CC(Oc2ccc(CN3CC4(COC4)C3)c(Cl)c2)C1
Q. O=C(NC1C2CC3CC1CC(O)(C3)C2)c1cnc(OC2COC2)nc1C1CCCC1 (stereo not given)
Problem: Between the entries labelled P and Q , which has a larger pKa value on record? Reply briefly: the label of your chosen item.
Solution: P
(P: 7.7, Q: 2.6)

A. COc1ccc(-c2nnc(C(=O)N3CC(Oc4ccc(CNCC5(C)COC5)cc4)C3)o2)cc1
B. O=C(NC1C2CC3CC1CC(O)(C3)C2)c1cnc(NC2COC2)nc1C1CC1 (stereo not given)
Problem: Between the entries labelled A and B , which has a larger pKa value on record? Reply briefly: the label of your chosen item.
Solution: A
(A: 8.2, B: 2.8)

###

Experiment: physchem
Settings: octanol/water, pH 7.4
Measurement Type: logD

P. COc1cc(OC2CN(C(=O)c3nnc(-c4ccc(C(F)F)cc4)o3)C2)ccc1CN1CCCC12COC2
Q. COc1ccc(CN2CCCC23COC3)cc1
R. COc1ccc(CN2CCC3(CC2)COC3)cc1
S. O=C(c1nnc(-c2ccccc2)o1)N1CC(Oc2ccc(CN3CC4(COC4)C3)cc2Cl)C1
Problem: Could you please order the items by logD, going from the lowest number to the highest? Form entry: labels listed in requested order.
Solution: R, Q, S, P

a. O=C(c1nnc(-c2ccccc2)o1)N1CC(Oc2ccc(CN3CC4(COC4)C3)c(Cl)c2)C1
b. O=C(NC1C2CC3CC1CC(O)(C3)C2)c1cnc(OC2COC2)nc1C1CCC1 (stereo not given)
Problem: Between the entries labelled a and b , which has a larger logD value on record? Reply briefly: the label of your chosen item.
Solution: a
(a: 3, b: 1.6)

###

Experiment: in vitro
Conditions: human, liver microsomes
Description: Intrinsic clearance in human liver microsomes at 50 uM in presence of NADPH by HPLC-MS analysis
Measurement Type: microsomal CLint at 50 µM

Worked cases, microsomal CLint at 50 µM given:
O=C(NC1C2CC3CC1CC(O)(C3)C2)c1cnc(NC2COC2)nc1C1CCCC1 (configuration not stated): < 2 µL/min/mg
COc1ccc(CN2CC3(COC3)C2)cc1: < 3 µL/min/mg
O=C(NC1C2CC3CC1CC(O)(C3)C2)c1cnc(OC2COC2)nc1C1CC1 (configuration not stated): < 2 µL/min/mg
COc1ccc(CN2CCCC3(COC3)C2)cc1: 28.3 µL/min/mg
O=C(NC1C2CC3CC1CC(O)(C3)C2)c1cnc(NC2COC2)nc1C1CCC1 (configuration not stated): < 3.5 µL/min/mg

Problem: Quick one: microsomal CLint at 50 µM of O=C(NC1C2CC3CC1CC(O)(C3)C2)c1cnc(NC2COC2)nc1C1CC1 (configuration not stated) ?
Solution: < 2 µL/min/mg

Problem: Quick one: microsomal CLint at 50 µM of `COc1ccc(-c2nnc(C(=O)N3CC(Oc4ccc(COCC5(C)COC5)cc4)C3)o2)cc1` ?
Solution: > 300 µL/min/mg

###

Assay: physchem
Conditions: buffer, pH 7.4
Description: Aqueous solubility of the compound in pH 7.4 HBSS buffer HPLC-MS analysis
Measurement Type: solubility (µM)
Use µM as the unit, but write only the number.

Problem: Quick one: solubility of `COc1ccc(CN2CCCC3(COC3)C2)cc1` ?
Solution: 744

Problem: Quick one: solubility of `COc1ccc(CN2CC3(COC3)C2)cc1` ?
Solution: 364

Problem: Quick one: solubility of O=C(NC1C2CC3CC1CC(O)(C3)C2)c1cnc(OC2COC2)nc1C1CCC1 (stereo not given) ?
Solution: 818

###

Experiment: physchem
Settings: pH 2.3
Measurement Type: pKa

Cc1cc(OC2CN(C(=O)c3nnc(-c4ccccc4)o3)C2)ccc1CN1CCCC2(COC2)C1: 7.6
COc1ccc(-c2nnc(C(=O)N3CC(Oc4ccc(CN5CC6(COC6)C5)cc4C)C3)o2)cc1: 8.4
COc1cc(OC2CN(C(=O)c3nnc(-c4ccccc4)o3)C2)ccc1CN1CCCC12COC2: 8
O=C(c1nnc(-c2ccc(F)cc2)o1)N1CC(Oc2ccc(CN3CC4(COC4)C3)cc2)C1: 8.2
COc1ccc(-c2nnc(C(=O)N3CC(Oc4ccc(CN5CCCC56COC6)cc4)C3)o2)cc1: 6
COc1ccc(-c2nnc(C(=O)N3CC(Oc4ccc(CN(C)CC5(C)COC5)c(C)c4)C3)o2)cc1: 8
COc1ccc(CN2CCCC3(COC3)C2)cc1: 8.08
COc1cc(CN2CC3(COC3)C2)ccc1OC1CN(C(=O)c2nnc(-c3ccc(C(F)F)cc3)o2)C1: 8.9
O=C(c1nnc(-c2ccc(C(F)F)cc2)o1)N1CC(Oc2ccc(CN3CC4(COC4)C3)cc2)C1: 8.5
COc1cc(CN2CCCC23COC3)ccc1OC1CN(C(=O)c2nnc(-c3ccc(C(F)F)cc3)o2)C1: 6.1
COc1cc(OC2CN(C(=O)c3nnc(-c4ccc(C(F)F)cc4)o3)C2)ccc1CN1CCCC12COC2: 7

###

Assay: physchem
Conditions: octanol/water, pH 7.4
Measurement Type: logD

COc1ccc(-c2nnc(C(=O)N3CC(Oc4ccc(CN(C)CC5(C)COC5)c(C)c4)C3)o2)cc1: 3
COc1cc(CN2CCCC23COC3)ccc1OC1CN(C(=O)c2nnc(-c3ccc(C(F)F)cc3)o2)C1: 3.8

A. Cc1cc(OC2CN(C(=O)c3nnc(-c4ccccc4)o3)C2)ccc1CN1CCCC2(COC2)C1
B. O=C(NC1C2CC3CC1CC(O)(C3)C2)c1cnc(OC2COC2)nc1C1CCCC1 (centres undefined)
Problem: From the items above, decide which of A and B has the lower logD reading. Reply briefly: the label of your chosen item.
Solution: B
